- target_under_test: Cholinesterase (Homo sapiens, UniProt P06276)
- Sequence (P06276 whole entry): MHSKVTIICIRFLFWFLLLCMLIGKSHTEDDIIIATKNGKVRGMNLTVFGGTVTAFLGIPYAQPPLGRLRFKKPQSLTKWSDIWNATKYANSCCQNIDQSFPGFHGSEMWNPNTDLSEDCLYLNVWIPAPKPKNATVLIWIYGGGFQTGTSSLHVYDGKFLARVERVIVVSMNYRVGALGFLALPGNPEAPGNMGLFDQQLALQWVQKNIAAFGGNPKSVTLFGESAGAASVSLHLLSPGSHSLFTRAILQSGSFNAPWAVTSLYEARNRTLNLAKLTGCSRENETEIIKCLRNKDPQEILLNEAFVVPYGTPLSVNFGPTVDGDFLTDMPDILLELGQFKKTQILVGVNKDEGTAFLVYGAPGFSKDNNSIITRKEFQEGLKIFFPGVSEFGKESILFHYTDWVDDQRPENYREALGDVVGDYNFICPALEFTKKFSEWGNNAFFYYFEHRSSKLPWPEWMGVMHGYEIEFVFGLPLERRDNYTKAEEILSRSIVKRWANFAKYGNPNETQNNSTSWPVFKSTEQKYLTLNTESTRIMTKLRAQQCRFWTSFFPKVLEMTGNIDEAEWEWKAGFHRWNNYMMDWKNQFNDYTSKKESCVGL
Values of IC50 strictly less than 2000 nM map to true, and values of at least 2000 nM map to false.

molecule	discrete_label
CCN(CCCCCC(=O)Nc1ccc(CCc2ccc(NC(=O)CCCCCN(CC)Cc3ccccc3OC)cc2)cc1)Cc1ccccc1OC	true
CCN(CCCCCC(=O)N1CCC(CCC2CCN(C(=O)CCCCCN(CC)Cc3ccccc3OC)CC2)CC1)Cc1ccccc1OC	false
CCN(CCCCCCNc1ccc(-c2ccc(NCCCCCCN(CC)Cc3ccccc3OC)cc2)cc1)Cc1ccccc1OC	false
CCN(CCCCCCNc1ccc(Cc2ccc(NCCCCCCN(CC)Cc3ccccc3OC)cc2)cc1)Cc1ccccc1OC	true
CCN(CCCCCC(=O)N1CCC(C2CCN(C(=O)CCCCCN(CC)Cc3ccccc3OC)CC2)CC1)Cc1ccccc1OC	false
CCN(CCCCCC(=O)N1CCC(CC2CCN(C(=O)CCCCCN(CC)Cc3ccccc3OC)CC2)CC1)Cc1ccccc1OC	false
CCN(CCCCCC(=O)Nc1ccc(-c2ccc(NC(=O)CCCCCN(CC)Cc3ccccc3OC)cc2)cc1)Cc1ccccc1OC	true
CCN(CCCCCC(=O)N1CCC(CCCC2CCN(C(=O)CCCCCN(CC)Cc3ccccc3OC)CC2)CC1)Cc1ccccc1OC	false
CC[N+](C)(CCCCCC(=O)Nc1ccc(CCc2ccc(NC(=O)CCCCC[N+](C)(CC)Cc3ccccc3OC)cc2)cc1)Cc1ccccc1OC (stereo not drawn)	true
CC[N+](C)(CCCCCC(=O)N1CCC(CCCC2CCN(C(=O)CCCCC[N+](C)(CC)Cc3ccccc3OC)CC2)CC1)Cc1ccccc1OC (stereo not drawn)	true
CCN(CCCCCCNc1ccc(CCc2ccc(NCCCCCCN(CC)Cc3ccccc3OC)cc2)cc1)Cc1ccccc1OC	false
CC[N+](C)(CCCCCC(=O)N1CCC(CCC2CCN(C(=O)CCCCC[N+](C)(CC)Cc3ccccc3OC)CC2)CC1)Cc1ccccc1OC (stereo not drawn)	true
CCN(CCCCCC(=O)Nc1ccc(Cc2ccc(NC(=O)CCCCCN(CC)Cc3ccccc3OC)cc2)cc1)Cc1ccccc1OC	true
